Tested on: IRAK4;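 also: KINOMEscan kinase panel screen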
Details: concentration: 1 μM, replicates: in singlicate; n = 1
Quantity measured: %Inh (%)
One number for each entry, in %.

CN1c2ccc(CNc3ccc(F)cc3)cc2-c2c(cnn2C)S1(=O)=O	0
O=C(NCCNc1ccnc(Nc2ccc(F)cc2)n1)Nc1ccccc1F [GSK1379880]	11
CSc1ccc(-c2cc3ncnc(SCC(=O)O)c3s2)cc1	9
Cc1cn2c(=O)cc(N3CCOCC3)nc2n1Cc1cccc(Cl)c1Cl [GSK2334006]	5

Challenge: %Inh of Cc1nnc(-c2ccc(C)c(-c3ccc(C(=O)Nc4ccc(NS(C)(=O)=O)cc4)cc3)c2)o1 [GW702865] on IRAK4?
Response given: 0
